- Procedure summary: Toxicity on macrophages (MTT, CC50)
- Format: cell-based
- Test parameters: human, THP-1 macrophage cell line; 48 h
Quantity kind: CC50 at 48 h (µg/mL)

| Compound | Quantity kind | Display unit | Value measured |
| --- | --- | --- | --- |
| C[C@@H]1[C@H](O)[C@@H](C)/C=C/C=C/C=C/C=C/C=C/C=C/C=C/[C@H](O[C@@H]2O[C@H](C)[C@@H](O)[C@H](N)[C@@H]2O)C[C@@H]2O[C@](O)(C[C@@H](O)C[C@@H](O)[C@H](O)CC[C@@H](O)C[C@@H](O)CC(=O)O[C@H]1C)C[C@H](O)[C@H]2C(=O)O [Amphotericin B] | CC50 at 48 h | µg/mL | 772 |
